B1: VAMP4 (parent)
chain: IMALVAAILLLVIIILIVMKYRT

- Variants of: B1
- measurement notes: protein stability index of a GFP-peptide fusion (GPS, HEK-293T) (PSI 1-6); higher = more stable;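 also: lentivirally expressed fusions sorted by FACS into six bins by GFP to DsRed ratio, PSI derived from sequencing read proportions per bin multiplied by bin number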
- assay setup: c terminus: native
experimental endpoint: protein stability index
Give bare numbers.

Below, 5 variants whose answers are already recorded.
{"seq": "IMAVVAAILLLVIIILIVMKYRT [L4V]", "protein stability index": 3.14}
{"seq": "IMALVAAILLLVIIIWIVMKYRT [L16W]", "protein stability index": 3.28}
{"seq": "IMALVAAILLLVIIILIVMKYRI [T23I]", "protein stability index": 2.95}
{"seq": "IMALVAAILLLVIIILVVMKYRT [I17V]", "protein stability index": 3.11}
{"seq": "IMALVAAILLLVVIILIVMKYRT [I13V]", "protein stability index": 2.8}

Report protein stability index for each item below.
1. IMALVAAILLKVIIILIVMKYRT [L11K]
2. IMALVAAILLLVIIILIVMKNRT [Y21N]
3. IMALVAAILLLVIIILIVMKYMT [R22M]

2.61
3.32
4.08

Values from the supplement of paper PMC10567573
